- System: PANC-1
- Assay: SRB colorimetric assay of cell growth and viability, PANC-1
- Type: cell-based, human
- Condition set: PANC-1; 48 hours exposure; read-out: LC50 PANC-1
Where a SMILES comes first, the peptide text is derived from it. Bridges are numbered along the chain shown (N, C = ends). [ ]: non-standard residue; d: D form. The star is where a group is joined. d(aIle) = CC[C@H](C)[C@@H](N)C(=O)O; d(aThr) = C[C@@H](O)[C@@H](N)C(=O)O; Hexanoyl(5-Me) = CC(C)CCCC(=O)*; Orn = NCCC[C@H](N)C(=O)O; Dhb = C/C=C(\N)C(=O)O
Readout kind: CC50 (µM)
Expressed in µM, but write only the number.

Value sought: CC50, system PANC-1, item C/C=C1\NC(=O)[C@H](Cc2ccccc2)NC(=O)[C@@H](C(C)C)NC(=O)[C@@H]([C@@H](C)CC)NC(=O)[C@H](NC(=O)[C@H](NC(=O)[C@H](CCCN)NC(=O)[C@H]2CCCN2C(=O)[C@H](NC(=O)[C@@H](NC(=O)[C@@H]2CCCN2C(=O)[C@H](NC(=O)CCCC(C)C)C(C)C)C(C)C)C(C)C)[C@@H](C)CC)[C@@H](C)OC(=O)[C@H](C(C)C)NC1=O [Compound 117, [Pro^12]-KF] ({Hexanoyl(5-Me)}-[dV]PV[dV][dP][Orn][d(aIle)][d(aThr)][d(aIle)][dV]F[Dhb]V; ester 8-C) . Result: 6.78
